# Test Name: Apparent permeability from apical to basolateral side in human Caco2 cells at 10 uM after 40 mins
# Test Settings: Caco-2
Measurement Type: Papp A→B at 40 min, 10 µM (×10⁻⁶ cm/s)

[1] Nc1cc(-c2ccco2)c2oc(-c3ccco3)nc2c1
[2] O=C(CCN1CCCCC1)Nc1cc(-c2ccco2)c2oc(-c3ccco3)nc2c1
[3] O=C(CCN1CCc2ccccc2C1)Nc1cc(-c2ccco2)c2oc(-c3ccco3)nc2c1
[4] O=C(CCN1CCOCC1)Nc1cc(-c2ccco2)c2oc(-c3ccco3)nc2c1
Rank entries according to their Papp A→B at 40 min, 10 µM, from the largest number down. To answer, arrange all of the labels according to the requested order.
1, 4, 2, 3
(1: 77 ×10⁻⁶ cm/s, 4: 11 ×10⁻⁶ cm/s, 2: 2.3 ×10⁻⁶ cm/s, 3: 0.2 ×10⁻⁶ cm/s)

---

# Test Name: physchem
# Test Settings: PBS, pH 7.4
Measurement Type: solubility at 24 h (µM)

Quick one: solubility at 24 h for O=C(CCN1CCOCC1)Nc1cc(-c2ccco2)c2oc(-c3ccco3)nc2c1 ?
173

[P] O=C(CCN1CCc2ccccc2C1)Nc1cc(-c2ccco2)c2oc(-c3ccco3)nc2c1
[Q] O=C(CCN1CCCCC1)Nc1cc(-c2ccco2)c2oc(-c3ccco3)nc2c1
[R] Nc1cc(-c2ccco2)c2oc(-c3ccco3)nc2c1
Order the records so the highest solubility at 24 h appears first and the lowest last. Returns: the labels arranged in the requested order.
Q, R, P
(Q: 165 µM, R: 31 µM, P: 8 µM)

---

# Tested System: Adenosine receptor A2a (Homo sapiens, UniProt P29274)
# Sequence (P29274 whole entry): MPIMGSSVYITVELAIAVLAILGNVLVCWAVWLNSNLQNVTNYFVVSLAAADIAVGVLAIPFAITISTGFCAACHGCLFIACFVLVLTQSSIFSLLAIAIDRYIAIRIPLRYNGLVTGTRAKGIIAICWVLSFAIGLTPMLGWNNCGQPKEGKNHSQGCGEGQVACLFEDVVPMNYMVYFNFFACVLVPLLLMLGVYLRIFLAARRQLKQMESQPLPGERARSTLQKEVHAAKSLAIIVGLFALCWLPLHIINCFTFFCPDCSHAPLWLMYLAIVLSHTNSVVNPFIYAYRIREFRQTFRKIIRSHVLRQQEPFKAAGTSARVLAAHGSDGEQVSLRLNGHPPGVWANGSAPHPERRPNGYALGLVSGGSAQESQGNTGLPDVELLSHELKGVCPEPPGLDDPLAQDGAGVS
# Test Name: Displacement of [3H]-ZM241385 from human adenosine A2A receptor expressed in CHO cell membranes after 1 hr by TopCount microplate scintillation counting method
Measurement Type: Ki (nM)

// solved cases for Ki follow
Give the reported Ki for O=C(CCN1CCCCC1)Nc1cc(-c2ccco2)c2oc(-c3ccco3)nc2c1 (system: Adenosine receptor A2a (Homo sapiens, UniProt P29274)).
81

Same lookup for Nc1cc(NC(=O)CN2CCCCC2)cc2nc(-c3ccco3)oc12 , please.
480

Similarly, Nc1cc(-c2ccc(F)cc2)c2oc(-c3ccco3)nc2c1 ?
438

Same question for O=C(CCN1CCc2ccccc2C1)Nc1cc(-c2ccco2)c2oc(-c3ccco3)nc2c1 please.
30

Another compound to look at: Nc1cc(-c2cccs2)c2oc(-c3ccco3)nc2c1
71

Try the compound O=C(CN1CCCCC1)Nc1cc(-c2ccco2)c2oc(-c3ccco3)nc2c1
210

Subsequent entry: O=C(CCN1CCOCC1)Nc1cc(-c2ccco2)c2oc(-c3ccco3)nc2c1
90

[P] Nc1cc(-c2ccccc2)c2oc(-c3ccco3)nc2c1
[Q] Nc1cc(-c2ccco2)c2oc(-c3ccco3)nc2c1
Just tell me: smaller Ki value, P or Q ? Please respond with the label that marks your chosen entry.
Q

---

# Test Name: in vitro
# Test Settings: human, microsomes
# Description: Intrinsic clearance in human liver microsomes at 0.1 uM
Measurement Type: microsomal CLint at 0.1 µM

Find the recorded microsomal CLint at 0.1 µM belonging to O=C(CCN1CCOCC1)Nc1cc(-c2ccco2)c2oc(-c3ccco3)nc2c1 and report it.
< 115 µL/min/mg

---

# Test Name: Protein binding in human plasma at 10 uM after 4 hrs
Measurement Type: fraction unbound at 4 h, 10 µM

Need fraction unbound at 4 h, 10 µM, item O=C(CCN1CCOCC1)Nc1cc(-c2ccco2)c2oc(-c3ccco3)nc2c1
0.02

[A] O=C(CCN1CCc2ccccc2C1)Nc1cc(-c2ccco2)c2oc(-c3ccco3)nc2c1
[B] O=C(CCN1CCCCC1)Nc1cc(-c2ccco2)c2oc(-c3ccco3)nc2c1
[C] Nc1cc(-c2ccco2)c2oc(-c3ccco3)nc2c1
Provide the items ranked by increasing fraction unbound at 4 h, 10 µM. Please respond with the labels ordered as the question requires.
A, B, C

---

# Tested System: Adenosine receptor A2a (Homo sapiens)
# Test Name: Displacement of [3H]-ZM241385 from human adenosine A2A receptor expressed in CHO cell membranes after 1 hr by TopCount microplate scintillation counting method
Measurement Type: Ki (nM)

Entry O=C(CCCN1CCCCC1)Nc1cc(-c2ccco2)c2oc(-c3ccco3)nc2c1 has what Ki?
98

And the next one, Nc1ccc2oc(-c3ccco3)nc2c1 ?
10000

[A] Nc1cc(-c2ccccn2)c2oc(-c3ccco3)nc2c1
[B] COc1ccc(-c2cc(N)cc3nc(-c4ccco4)oc23)cc1OC
[C] O=C(CN1CCCCC1)Nc1ccc2oc(-c3ccco3)nc2c1
Arrange these 3 compounds in increasing order of Ki. Provide your answer as the labels ordered per the instruction.
B, A, C
(B: 90 nM, A: 135 nM, C: 1000 nM)

---

# Tested System: Adenosine receptor A2a (Homo sapiens, UniProt P29274)
# Test Name: Antagonist activity at human adenosine A2A receptor expressed in HEK293 cell membranes assessed as inhibition of […]-induced [35S]GTPgammaS binding preincubated for 10 mins followed by […] addition by TopCount scintillation counting method
Measurement Type: IC50 (nM)

Please look up its IC50: Nc1cc(-c2ccco2)c2oc(-c3ccco3)nc2c1
70.6

[1] O=C(CN1CCCCC1)Nc1cc(-c2ccco2)c2oc(-c3ccco3)nc2c1
[2] Nc1cc(NC(=O)CN2CCCCC2)cc2nc(-c3ccco3)oc12
Identify the entry with the smaller IC50: 1 or 2 . Give the label under which the chosen entry appears.
2

---

# Tested System: Adenosine receptor A2a (Homo sapiens, UniProt P29274)
# Test Name: Antagonist activity at adenosine A2A receptor (unknown origin)
Measurement Type: Ki (nM)
Numbers only here, please. The scale is nM.

Query: Ki; subject: COCCOc1ccc(N2CCN(CCn3ncc4c3nc(N)n3nc(-c5ccco5)nc43)CC2)cc1
0.5

---

# Test Name: Half life in human liver microsomes at 0.1 uM
# Test Settings: microsomes
Measurement Type: half-life at 0.1 µM

Given the molecule O=C(CCN1CCOCC1)Nc1cc(-c2ccco2)c2oc(-c3ccco3)nc2c1 , what is its reported half-life at 0.1 µM?
> 1 h

---

# Tested System: Adenosine receptor A2a (Homo sapiens, UniProt P29274)
# Test Name: Displacement of [3H]-ZM241385 from human adenosine A2A receptor expressed in HEK293 cell membranes after 1 hr by scintillation counting method
pKi: −log10 of the molar value.
Measurement Type: pKi

[A] Nc1ccc2oc(-c3ccco3)nc2c1
[B] O=C(CN1CCCCC1)Nc1ccc2oc(-c3ccco3)nc2c1
I would appreciate it if you could say which entry, A or B , has the lower pKi value. To answer, give the label that identifies your chosen option.
A
